system: Vero E6 infected with SARS-CoV-2; experiment: SARS-CoV-2 infection rate relative to infected DMSO; higher = more infection, active = 60 or less; conditions: 24 h
Assignment: determine reported SARS-CoV-2 infection rate for the given molecules.
Numbers only, in %.

Recorded SARS-CoV-2 infection rate, per entry:
C[C@H](Nc1cc(NS(=O)(=O)N2CCC2)nc(SCc2cccc(F)c2F)n1)[C@@H](O)CO (10 µM) :: 99
NC1CCN(c2c(F)cc3c(=O)c(C(=O)O)cn(C4CC4)c3c2Cl)C1 (centres undefined) [clinafloxacin] (10 µM) :: 112
O=c1[nH]c(CCl)nc2sc3c(c12)CCCC3 (10 µM) :: 104

**Query** Provide SARS-CoV-2 infection rate value for the following molecule: C/C(=C(\CCOP(=O)(O)O)SC(=O)c1ccccc1)N(C=O)Cc1cnc(C)nc1N [benfotiamine] (10 µM)
**Result** 112

---

test system: Vero E6 infected with SARS-CoV-2; assay: inhibition of SARS-CoV-2 cytopathic effect; higher = more antiviral protection, active = above 15; settings: 8.33 nM; 48 h
measurement type: inhibition of SARS-CoV-2 cytopathic effect (%)
Answers are plain numbers, in %.

Each molecule below has a recorded value; state its inhibition of SARS-CoV-2 cytopathic effect.
1. CCN(CC)Cc1ccc(C(=O)N(CCc2ccccc2OC)[C@@H]2CCNC2)cc1
2. CCCCCCCCCCCCOS(=O)(=O)O [dodecyl-sulfate]
3. CCCCCCCCCCCCCCCCCC(=O)OC[C@@H](O)[C@H]1OC[C@H](O)[C@H]1O [sorbitan-monostearate]
4. CCOC(N)=O [urethane]
5. Cc1c(-c2ccccc2)oc2c(C(=O)OCCN3CCCCC3)cccc2c1=O [flavoxate]
6. CCC(C)n1ncn(-c2ccc(N3CCN(c4ccc(OCC5COC(Cn6cncn6)(c6ccc(Cl)cc6Cl)O5)cc4)CC3)cc2)c1=O (centres undefined) [itraconazole]

**Result**
[-4.2, 1.83, -1.4, -4.31, 0.44, 7.17]

// each listed molecule needs a value for inhibition of SARS-CoV-2 cytopathic effect
1. C[C@@H](CN1CCC(Cc2ccccc2)CC1)[C@@H](O)c1ccc(O)cc1
2. Cc1ccccc1-c1cc(N2CCN(C)CC2)ncc1N(C)C(=O)C(C)(C)c1cc(C(F)(F)F)cc(C(F)(F)F)c1 [netupitant]
3. CC(C)OC(=O)OCOP(=O)(CO[C@H](C)Cn1cnc2c(N)ncnc21)OCOC(=O)OC(C)C [tenofovir-disoproxil]
4. CCc1cnc(N2CCC(c3nc(COc4ccc(-n5cnnn5)cc4)cs3)CC2)nc1
5. COC(c1ccccc1)(c1ccccc1)[C@H](Oc1nc(C)cc(C)n1)C(=O)O [ambrisentan]
6. Cc1ccc(Cl)cc1N(CC(=O)Nc1c(F)cccc1F)S(C)(=O)=O
7. O=C(O)c1ccc2c(c1)nc(Nc1cccc(Cl)c1)c1ccncc12
8. CCCCC1(COC(=O)CCC(=O)O)C(=O)N(c2ccccc2)N(c2ccccc2)C1=O [suxibuzone]

**Result**
[-0.92, 0.01, -1.58, -3.29, -0.7, -2.01, 0.18, -4.18]

Batch of 4 molecules: report inhibition of SARS-CoV-2 cytopathic effect for each.
1. O=C(O)CCc1ccc(NCc2cccc3c2CCCN3CCOc2ccccc2)cc1F
2. CN(C)CCc1c[nH]c2ccc(C[C@H]3COC(=O)N3)cc12 [zolmitriptan]
3. O=C(NNc1ccccc1)c1ccncc1 [plurisin-1]
4. Nc1nc(NCCc2ccc(O)cc2)nc2nc(-c3ccco3)nn12

**Result**
4.34
2.01
1.32
-0.03

**Query** Output inhibition of SARS-CoV-2 cytopathic effect of Nc1nc2ccc(OC(F)(F)F)cc2s1 [riluzole]
**Result** -3.06

---

test system: Vero E6 infected with SARS-CoV-2; test: morphology score (similarity to uninfected cells); higher = more like uninfected cells; conditions: 24 h
Tag: 1 (yes) if measured morphology score is not below -0.01, 0 (no) if it is.

These recorded examples may help you get a feel for the data.
CCCCCCCCc1ccc(-c2ccc(C(=O)O)cc2)cc1 (10 µM) :: 0 (no)
O=P(O)(O)C(Cl)(Cl)P(=O)(O)O [clodronic-acid] (10 µM) :: 1 (yes)
O=C(NC(NC(=S)Nc1ccc(F)c([N+](=O)[O-])c1)C(Cl)(Cl)Cl)C(c1ccccc1)c1ccccc1 (configuration not stated) (0.833333 µM) :: 1 (yes)
C=CC(=O)N1CCN(C(=O)CNc2cc(I)c(Cl)cc2O)CC1 [K-Ras(G12C)-inhibitor-12] (10 µM) :: 0 (no)
COc1cccc2c1C(=O)c1c(O)c3c(c(O)c1C2=O)C[C@@](O)(/C(CO)=N/NC(=O)CCCCCN1C(=O)C=CC1=O)C[C@@H]3O[C@H]1C[C@H](N)[C@H](O)[C@H](C)O1 [aldoxorubicin] (0.833333 µM) :: 0 (no)
Cc1cnc(C(=O)O)c[n+]1[O-] [acipimox] (10 µM) :: 1 (yes)

Please look at the following compound next.
**Query** API: above_or_equal(metric=morphology score, cutoff=-0.01) for item O=C1NC(O)CCN1[C@@H]1O[C@H](CO)[C@@H](O)[C@H]1O (some centres not stated) [tetrahydrouridine] (10 µM)
**Result** 1 (yes)

---

test system: Vero E6 infected with SARS-CoV-2; test: SARS-CoV-2 infection rate relative to infected DMSO; higher = more infection, active = 60 or less; conditions: 24 h
measurement type: SARS-CoV-2 infection rate (%)
Answers are plain numbers, in %.

Fc1ccccc1CNCc1ccc(-c2ccnc3[nH]ccc23)cc1 (10 µM) :: 116
CO[C@H]1/C=C/O[C@@]2(C)Oc3c(C)c(O)c4c(O)c(c(/C=N/N5CCN(C6CCCC6)CC5)c(O)c4c3C2=O)NC(=O)/C(C)=C\C=C\[C@H](C)[C@H](O)[C@@H](C)[C@@H](O)[C@@H](C)[C@H](OC(C)=O)[C@@H]1C [rifapentine] (10 µM) :: 107

State recorded SARS-CoV-2 infection rate for all listed compounds.
1. O=C(OCCN1CCOCC1)c1cccnc1Nc1cccc(C(F)(F)F)c1 [morniflumate] (10 µM)
2. Clc1ccccc1CN1CCc2sccc2C1 [ticlopidine] (10 µM)
3. C[C@@H]1[C@H](O)[C@@H](C)/C=C/C=C/C=C/C=C/C=C/C=C/C=C/[C@H](O[C@@H]2O[C@H](C)[C@@H](O)[C@H](N)[C@@H]2O)C[C@@H]2O[C@](O)(C[C@@H](O)C[C@@H](O)[C@H](O)CC[C@@H](O)C[C@@H](O)CC(=O)O[C@H]1C)C[C@H](O)[C@H]2C(=O)O [amphotericin-b] (10 µM)
4. Clc1ccc(N/N=C(\c2ccccc2)c2ccccn2)nc1 (10 µM)

**Result**
1. 108
2. 92.5
3. 107
4. 103

**Query** Entry COc1cccc2cc(-c3nc([C@H]4CC[C@H](C(=O)O)CC4)n4ncnc(N)c34)[nH]c12 (0.833333 µM) needs its SARS-CoV-2 infection rate filled in; supply it.
**Result** 112

---

tested on: Vero E6 infected with SARS-CoV-2; assay: inhibition of SARS-CoV-2 cytopathic effect; higher = more antiviral protection, active = above 15; conditions: 1 nM; 48 h
I'd appreciate it if you could supply inhibition of SARS-CoV-2 cytopathic effect values for the items below.
Numbers only, in %.

Worked cases, inhibition of SARS-CoV-2 cytopathic effect given:
Clc1ccc2c(N3CCN(CCCN4CCN(c5ccnc6cc(Cl)ccc56)CC4)CC3)ccnc2c1 [piperaquine-phosphate] :: -0.04
CN(C)[C@@H]1C(O)=C(C(N)=O)C(=O)[C@@]2(O)C(O)=C3C(=O)c4c(O)cccc4[C@@](C)(O)[C@H]3[C@H](O)[C@@H]12 [oxytetracycline] :: -0.32
COc1ccc(Cl)cc1NC(=O)Nc1cc(C)nc2ccccc12 :: 1.48

Respectfully, I request inhibition of SARS-CoV-2 cytopathic effect for each entry included below.
1. CC[C@]1(O)C[C@@H]2CN(CCc3c([nH]c4ccccc34)[C@@](C(=O)OC)(c3cc4c(cc3OC)N(C)[C@H]3[C@@](O)(C(=O)OC)[C@H](OC(C)=O)[C@]5(CC)C=CCN6CC[C@]43[C@@H]65)C2)C1 [Vinblastine (sulfate)]
2. Oc1c(I)cc(Cl)c2cccnc12 [clioquinol]

**Result**
[-0.48, -4.79]

Count: 4. Required value per item: inhibition of SARS-CoV-2 cytopathic effect.
1. C=CCc1cc(OC)c(O)c(C(=O)NCCO)c1 [alibendol]
2. CC(C)NCCN(C(C)C)S(=O)(=O)c1ccc(Cl)cc1Cl
3. COc1ccc2[nH]c(C(=O)c3ccccc3)cc2c1
4. CC(C)(Cc1c[nH]c2ccc(Cl)cc12)NCCOc1ccccc1OCC1CC1

**Result**
[-1.08, 1.45, 0.63, 0.45]
